Values from PubChem BioAssay (NCI)

Tested on: A498 renal
ASSAY NOTES: NCI tumour cell line growth inhibition, 48 h
Field: GI50. Provide a value for each of the compounds that follow.

> print(dat)
                                   compound  measured.on  result.value
1  O=C(/C=C/N1CCN(c2cccc(Cl)c2)CC1)c1ccc(Cl)cc1   A498 renal       21.8 µM
2  Cc1cc(N(CCCl)CCCl)ccc1/C=N\NC(=O)c1cccnc1   A498 renal       1.42 µM
3           Brc1ccc2c(c1)-c1ccccc1C1=NCCN12   A498 renal      0.866 µM
4      O=C(NCc1cccnc1)c1ccc([N+](=O)[O-])o1   A498 renal       3.25 µM
5  CCc1c[nH]c2ncnc(N3CC[C@](N)(CNC(=O)c4ccc(F)cc4F)C3)c12   A498 renal      0.245 µM

# batch size: 5; output GI50 per entry
1. CN1CCN(Cc2ccc(NC(=O)c3cncc(C#Cc4cnc5cccnn45)c3)cc2C(F)(F)F)CC1
2. CCNc1nc(-c2ccc(Cl)c(OC)c2)c(-c2ccnc(NCCNS(=O)(=O)c3ccc(Cl)cc3)n2)s1
3. OCCn1c(-c2ccncc2)c(-c2ccc(F)cc2)c2ncccc21
4. O=C1COc2c(CCNCCN(C(=O)CCNCCc3ccc(Cl)c(Cl)c3)C3CCCCC3)ccc(O)c2N1
5. COC(=O)C(NC(=O)c1ccccc1)c1ccc(OC)c(I)c1 (stereo not drawn)

0.907 µM
1.5 µM
> 20.3 µM
13.9 µM
> 100 µM

# batch size: 3; output GI50 per entry
1. CC(=O)Nc1ccc(C(=O)COc2cccc(/C=C3\CCc4ccccc4C3=O)c2)cc1
2. O=C(c1ccccc1)c1ccc(N2C(=O)C3C4c5ccccc5C(/C=C/C(=O)c5ccccn5)(c5ccccc54)C3C2=O)cc1 (stereo not drawn)
3. COC1=C(C)C(=O)C2=C(C1=O)C1C3CC4=C(C(=O)C(OC)=C(C)C4=O)C(CNC(=O)C(C)=O)N3C(C#N)C(C2)N1C (stereo not drawn)

1. 53.6 µM
2. 2.19 µM
3. 0.0634 µM

###

Field: TGI. Provide a value for each of the compounds that follow.
System: SR leukemia
ASSAY NOTES: NCI tumour cell line growth inhibition, 48 h

Worked examples follow.
> print(dat)
                                   compound  parameter  result.value
1           C/C(=N\NC(=O)c1ccncc1)c1ccccc1O        TGI      > 100 µM
2  O=C(/C=C/N1CCN(c2cccc(Cl)c2)CC1)c1ccc(Cl)cc1        TGI       59.3 µM

# batch size: 5; output TGI per entry
1. CN(C)c1ccc(/C=C2\CCCCCC2=O)cc1
2. O=C(NCc1ccc(Cl)c(Cl)c1)c1nc2ccccc2nc1NCc1ccc(Cl)c(Cl)c1
3. O=C1C(=O)c2c(ccc3ccccc23)-c2ccccc21
4. CC(=O)OCC1OC(OC(C)=O)C(NC#N)C(OC(C)=O)C1OC(C)=O (stereo not drawn)
5. Oc1ccc(CCNc2nc3ccccc3c3[nH]c4ccccc4c23)cc1

1. > 100 µM
2. > 100 µM
3. > 100 µM
4. > 100 µM
5. > 100 µM

###

System: SK-OV-3 ovarian
ASSAY NOTES: NCI tumour cell line growth inhibition, 48 h
PARAMETER: TGI

COMPOUND	MEASURED ON	TGI
CC1SCCc2nc3ccccc3n21 (stereo not given)	SK-OV-3 ovarian	> 100 µM
N#Cc1c(N/N=C/c2c(Cl)cccc2Cl)nc(N)nc1N1CCCC1	SK-OV-3 ovarian	> 100 µM
CCN(CCCl)c1ccc(NC(=O)c2cc(C(=O)NCCN(C)C)cc(C(=O)Nc3ccc(N(CC)CCCl)cc3)c2)cc1	SK-OV-3 ovarian	19.5 µM
O=[N+]([O-])c1cccc2c1[nH]c1c(-c3ccccc3)nccc12	SK-OV-3 ovarian	7.75 µM
CCCCCCCCCCCCCCCC(=O)OCC(COP(=O)(O)OCCNC(=O)CCSSc1ccccn1)OC(=O)CCCCCCCCCCCCCCC (stereo not given)	SK-OV-3 ovarian	> 100 µM

# batch size: 6; output TGI per entry
1. Cc1nc(-c2cccnc2)sc1C(=O)/C=C/c1ccc(Cl)cc1Cl
2. O=C1OC(c2ccccc2)=N/C1=C\c1ccc(N(CCCl)CCCl)cc1
3. Cc1cc(C2(c3cc(C)c(O)c4ncccc34)OC(=O)c3ccccc32)c2cccnc2c1O
4. COC(=O)N/N=C(\c1nc2ccc(Cl)cc2[nH]c1=O)C(O)c1ccc([N+](=O)[O-])cc1 (stereo not given)
5. CC(=O)Nc1ccc(C(=O)NN2C(=O)CSC2c2ccccc2)cc1 (stereo not given)
6. CC1=CC(=O)N2[C@H](OC[C@@H]2C(C)C)O1

> 100 µM
> 100 µM
21.9 µM
> 100 µM
> 100 µM
> 100 µM

###

Tested on: NCI-H460 lung
ASSAY NOTES: NCI tumour cell line growth inhibition, 48 h
Field: TGI. Provide a value for each of the compounds that follow.
Give bare numbers, in µM.

> print(dat)
                            chemical.smiles  result.value
1  CC(=O)Nc1ccc(C(=O)COc2cccc(/C=C3\CCc4ccccc4C3=O)c2)cc1          37.1

Continue with the compound presented below.
Output measured TGI for this item: `Cc1c(N(Cc2ccccc2)Cc2ccccc2)nc(S(C)(=O)=O)nc1S(C)(=O)=O`
22.1

###

System: MALME-3M melanoma
ASSAY NOTES: NCI tumour cell line growth inhibition, 48 h
Field: TGI. Provide a value for each of the molecules that follow.

> print(dat)
                                   molecule  parameter  result.value
1  COC(=O)/C(=C/c1ccc(OC)cc1)c1cc(OC)c(OC)c(OC)c1        TGI      > 100 µM
2  COc1ccc2c(C=O)c3n(c(=O)c2c1OC)CCc1cc2c(cc1-3)OCO2        TGI      > 100 µM
3  COc1ccc(C[C@H](N)C(=O)N[C@@H]2[C@@H](CO)OC(n3cnc4c(N(C)C)ncnc43)[C@@H]2O)cc1 (stereo partly drawn)        TGI       1.39 µM
4  COc1cc(CC2C(=O)OCC2Cc2ccc(OC)c(OC)c2)ccc1O (stereo not drawn)        TGI      > 100 µM
5  COc1ccc2c3c(c4cc(OC)c(OC)cc4c2c1)C[C@H]1CCCCN1C3        TGI   9.88e-06 µM
6     Nc1nc(Nc2cc(F)c(Cl)c(F)c2)cc(=O)[nH]1        TGI      > 100 µM
7  COc1ccc(-c2cc(=O)c3cc(OC)c(OC)cc3[nH]2)cc1OC        TGI      > 100 µM
8  CO[C@@H](c1ccccc1)[C@H](O)[C@@](O)(c1ccccc1)P(=O)(OC)OC        TGI      > 100 µM

# batch size: 4; output TGI per entry
1. Nc1nc2c(c(-c3ccc(F)cc3)n1)COC/C2=C\c1ccc(F)cc1
2. Cc1ccc(C)c(C(=O)CC2OC(O)C(Cl)C2Cl)c1 (stereo not drawn)
3. O=[N+]([O-])C1(CO)COC(CCc2ccccc2)OC1 (stereo not drawn)
4. CCCCCCCCCCCCCCCC(=O)NCC(OCC)OCC

["35.1 µM", "> 100 µM", "> 100 µM", "> 100 µM"]

# batch size: 8; output TGI per entry
1. O=C1Cc2c([nH]c3c(Br)cccc23)-c2ccccc2N1
2. Nc1nc2c(ccc3ccccc32)[nH]1
3. O=c1cccccc1[O-].O=c1cccccc1[O-].O=c1cccccc1[O-].[Dy+3]
4. FC(F)(Sc1nc2ccccc2[nH]1)c1nc2ccccc2o1
5. C[C@@H](c1ccccc1)N(CC#N)[C@H]1CCC[C@]1(O)/C=C/c1ccc2c(c1)OCO2
6. O=CC12CCCN1CCC2
7. CNc1nc(OC)c2c(n1)[n+](C)cn2C
8. O=NNc1nc(-c2ccccn2)nc2ccccc12

> 100 µM
> 10 µM
> 100 µM
> 100 µM
> 25 µM
> 100 µM
> 100 µM
19.6 µM

# batch size: 4; output TGI per entry
1. CCOC(=O)c1c(/C=N\Nc2ccccc2)nc2ccccc2c1-c1ccccc1
2. c1csc(-c2[nH]nc3c2CCc2ccccc2-3)c1
3. CC(=O)OC1CCC2(C)C(=CCC3C4CC(CN5CC5)C(=O)C4(C)CCC32)C1 (stereo not drawn)
4. CC(=O)OC1C(C)OC(OC2C[C@](O)(C(C)=O)Cc3c(O)c4c(c(O)c32)C(=O)c2ccccc2C4=O)C(F)C1OC(C)=O (stereo partly drawn)

["90.5 µM", "50.4 µM", "5.56 µM", "4.08 µM"]
